This collection of values is drawn from ChEMBL document CHEMBL1201861.

- Test system: HCC 2998;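 also: growth inhibition of human HCC2998 cells, measured with a cell viability read-out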
- procedure-summary: cells
- Format: functional, cell-based, Homo sapiens
- condition-description: Homo sapiens, HCC 2998
- Description: SANGER: Inhibition of human HCC2998 cell growth in a cell viability assay.
// log10(IC50) lookup, one value per entry
readout-type: log10(IC50) (log10 of the value in nM)

compound: C=CCc1cccc(/C=N/NC(=O)CN2CCN(Cc3ccccc3)CC2)c1O
log10(IC50): 3.07
//
compound: COc1ccc(-c2ccc3c(N4CCOC[C@@H]4C)nc(N4CCOC[C@@H]4C)nc3n2)cc1CO
log10(IC50): 3.29
//
compound: COc1cc(F)c(F)c(Nc2ccc(I)cc2F)c1NS(=O)(=O)C1(CC(O)CO)CC1 (stereo not drawn)
log10(IC50): 1.94
//
compound: O=C(NOCC1CC1)c1ccc(F)c(F)c1Nc1ccc(I)cc1Cl
log10(IC50): 3.74
//
compound: C=CCNC1=C2C[C@@H](C)C[C@H](OC)[C@H](O)[C@@H](C)/C=C(\C)[C@H](OC(N)=O)[C@@H](OC)/C=C\C=C(/C)C(=O)NC(=CC1=O)C2=O
log10(IC50): 1.87
